TESTED_TARGET: Carbonic anhydrase 2 (Homo sapiens) (UniProt P00918)
PROTOCOL_DETAILS: CAII small-molecule binders, profiling panel, biochemical, small-molecule microarray, Alexa647-labelled CAII (AID 1122)
COND: CAII-A647 binding fluorescence, higher = more signal
ATTRIBUTE_MEASURED: composite z-score

{"COMPOUND": "CCOC(=O)C[C@H]1[C@H](OC(=O)c2ccc(C(=O)c3ccccc3)cc2)[C@@H](NC(=O)c2ccc(-c3ccccc3)cc2)c2cc(OCCCO)ccc2N1C(=O)c1ccccc1", "MEASURED": 0.0733}
{"COMPOUND": "O=C1O[C@H](c2ccccc2)[C@H](c2ccccc2)N2[C@H]1[C@@H](C(=O)O)[C@]1(C(=O)Nc3ccc(C#CC4=CCCCC4)cc31)[C@H]2c1ccccc1OCCO", "MEASURED": 0.602}
{"COMPOUND": "CC(C)C(CO)N1C(=O)[C@@H]2[C@H]3C(=O)OCC=C[C@H]3OC23C=CCN(C(C)C)C(=O)[C@@H]13 (stereo partly drawn)", "MEASURED": -0.0147}

====

PROTOCOL_DETAILS: PSAC antagonists in infected red cells, primary screen, cell-based, P. falciparum Indochina, OD700, 1 h (AID 1154)
COND: P. falciparum Indochina infected RBC osmotic lysis, called active from +8 up or from −8 down
Activity calls are given as the source filed them.
Outcomes: 1.0 for active, 0.0 for inactive

{"COMPOUND": "COc1ccc([Si](C)(C)[C@H]2[C@H](CCO)O[C@@]3(C(=O)N(C)c4c(Br)cc(C)cc43)[C@@H]2C)cc1", "ASSIGNED_LABEL": 0.0}
{"COMPOUND": "CN(C)CCCNC(=O)[C@@]1(c2ccc([N+](=O)[O-])cc2)CC(=O)N(C2CCCCC2)[C@@H]1c1ccc(CO)cc1", "ASSIGNED_LABEL": 0.0}
{"COMPOUND": "[N-]=[N+]=Nc1ccccc1C[C@]1(C(N)=O)N=C(c2ccc(OCCCO)cc2)O[C@H]1c1ccccc1", "ASSIGNED_LABEL": 1.0}
{"COMPOUND": "COc1ccc(CCNC(=O)[C@@H]2c3ccccc3C(=O)N(C3Cc4ccccc4C3)[C@H]2c2ccc(CO)cc2)cc1", "ASSIGNED_LABEL": 0.0}
{"COMPOUND": "C=CCN1C(=O)[C@]2(O[C@H](CCO)[C@@H]([Si](C)(C)c3ccc(OC)cc3)[C@@H]2C)c2cc(N3C(=O)c4cccc5cccc3c45)ccc21", "ASSIGNED_LABEL": 0.0}
{"COMPOUND": "COCCOC(=O)N1C(=O)[C@@]2(c3ccccc31)[C@H](c1ccc(O)cc1)N1[C@H](c3ccccc3)[C@H](c3ccccc3)OC(=O)[C@H]1[C@@H]2C(=O)NC[C@H](O)c1ccccc1", "ASSIGNED_LABEL": 0.0}
{"COMPOUND": "O=C1OCCC/C=C\\[C@H]2OC34C=CCN(Cn5nnc6ccccc65)C(=O)[C@H]3N(CCO)C(=O)[C@@H]4C12 (some centres not stated)", "ASSIGNED_LABEL": 0.0}

====

PROTOCOL_DETAILS: modulators of S6 phosphorylation in cells, primary screen, cell-based, A549, cytoblot, luminescence, serum-stimulated (AID 1158);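 note: serum-stimulated A549 lung adenocarcinoma cells; signal is phosphorylated S6 detected by cytoblot immunostaining with HRP secondary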
COND: A549 phospho-S6 cytoblot, 5 h, higher = more signal
ATTRIBUTE_MEASURED: z-score

{"COMPOUND": "CCCCN1CC=CC23O[C@@H]4/C=C\\CCC(C)OC(=O)C4[C@H]2C(=O)N(CCCCCO)[C@@H]3C1=O (stereo partly drawn)", "MEASURED": 0.002}
{"COMPOUND": "CN(C)CCCNC(=O)[C@@]1(c2ccc([N+](=O)[O-])cc2)CC(=O)N(C2CCCCC2)[C@@H]1c1ccc(CO)cc1", "MEASURED": -0.0223}
{"COMPOUND": "C=C(CCCC)C(=O)CC[C@H](OC(C)=O)c1cccc(OCCO)c1", "MEASURED": 0.73}
{"COMPOUND": "O=C1NC(=O)C2C1C=CC(C(O)c1cccc3ccccc13)N2Nc1ccccn1 (stereo not drawn)", "MEASURED": -0.562}
{"COMPOUND": "O=C(O)[C@@]1(CCS(=O)(=O)c2ccccc2)COC(c2ccc(OCCCO)cc2)=N1", "MEASURED": -0.312}
{"COMPOUND": "CCC(CC)C(O)C1C=CC2C(=O)N(C)C(=O)C2N1Nc1ccccc1 (stereo not drawn)", "MEASURED": -0.835}
{"COMPOUND": "CCN(CC)c1ccc(N2CC=CC34O[C@@H]5/C=C\\CCCOC(=O)C5[C@H]3C(=O)N(CCO)[C@@H]4C2=O)cc1 (stereo partly drawn)", "MEASURED": -0.155}
{"COMPOUND": "COCCOC(=O)N1C(=O)[C@@]2(c3cc(C#CC4=CCCCC4)ccc31)[C@H](C(=O)Nc1nc3ccccc3s1)[C@H]1C(=O)O[C@H](c3ccccc3)[C@H](c3ccccc3)N1[C@@H]2c1ccccc1OCCO", "MEASURED": 1.93}
